Some compounds, each annotated with its measured pIC50.
# System: human neutrophils
# TEST_DETAILS: Human neutrophil migration assay (embelin-induced chemotaxis)
# Assay type: cell-based
# SETUP_CONDITIONS: Neutrophil; neutrophils from human buffy coats; embelin at EC80
pIC50: −log10 of the molar value.
MEASUREMENT_KIND: pIC50

- COMPOUND: "COc1ccc(-c2ccc3c(c2)CCn2c-3cc(OCC3COc4ncccc4O3)nc2=O)cn1 (stereo not shown)"
  OBSERVED_VALUE: "7.00 to 11.00"
- COMPOUND: "CCC(O)C#Cc1ccc2c(c1)CCn1c-2cc(OCC2COc3ncccc3O2)nc1=O (stereo not shown)"
  OBSERVED_VALUE: "7.00 to 11.00"
- COMPOUND: "O=c1nc(OCC2COc3ncccc3O2)cc2n1CCc1cc(COCCN3CCOCC3)ccc1-2 (stereo not shown)"
  OBSERVED_VALUE: "7.00 to 11.00"
- COMPOUND: "O=c1nc(OCC2COc3ncccc3O2)cc2n1CCc1cc(OCc3nnn[nH]3)ccc1-2 (stereo not shown)"
  OBSERVED_VALUE: "6.30 to 7.00"
